System: MCF7 breast
Experiment: NCI-60 one-dose screen, 48 h
Conditions: 10 µM unless noted
The panel holds about 83,000 compounds, 20% with a hit somewhere; the sample as a whole holds those more often. Calls of active or inactive are those of the source. How the source made its calls: active means growth percent below 10; inactive means the rest.
Write down the outcome that applies. Available outcomes: active, inactive

> print(dat)
                                   molecule  system.under.test  group.label
1  CCCNNC(=O)c1ccc(CNC(=O)/C=C/c2ccccc2)cc1        MCF7 breast     inactive

**Q:** Tell me the recorded outcome of this test for O=C1/C(=C/c2ccc(-c3ccc(Cl)cc3)o2)SC(=S)N1CCc1ccc(O)cc1 .
**A:** inactive

**Q:** For CCOC(=O)c1cnc2sc(-c3ccc(OC)cc3)nc2c1Cl , what call appears in the results of this test?
**A:** inactive

**Q:** Give the logged outcome of this assay for the following molecule: COc1ccc(/C(C)=C(\c2ccc(Cl)cc2)c2ccc(OCCCN(C)C)cc2)cc1
**A:** inactive

**Q:** Please indicate how the test categorized COc1ccc2c(c1)c(-c1nc(-c3cn(C)c4ccncc34)cs1)cn2C .
**A:** active

**Q:** # lookup: test call for CSc1nn2c(-c3cc4cc(Br)ccc4oc3=O)ccnc2c1C#N
**A:** inactive

Taken from PubChem BioAssay (NCI).
